Sourced from patent US20240101645A1

- Assay Target: T1, HCoV-HKU1 spike antigens (bead panel) (HCoV-HKU1, UniProt Q5MQD0 13-1300)
- T1 sequence: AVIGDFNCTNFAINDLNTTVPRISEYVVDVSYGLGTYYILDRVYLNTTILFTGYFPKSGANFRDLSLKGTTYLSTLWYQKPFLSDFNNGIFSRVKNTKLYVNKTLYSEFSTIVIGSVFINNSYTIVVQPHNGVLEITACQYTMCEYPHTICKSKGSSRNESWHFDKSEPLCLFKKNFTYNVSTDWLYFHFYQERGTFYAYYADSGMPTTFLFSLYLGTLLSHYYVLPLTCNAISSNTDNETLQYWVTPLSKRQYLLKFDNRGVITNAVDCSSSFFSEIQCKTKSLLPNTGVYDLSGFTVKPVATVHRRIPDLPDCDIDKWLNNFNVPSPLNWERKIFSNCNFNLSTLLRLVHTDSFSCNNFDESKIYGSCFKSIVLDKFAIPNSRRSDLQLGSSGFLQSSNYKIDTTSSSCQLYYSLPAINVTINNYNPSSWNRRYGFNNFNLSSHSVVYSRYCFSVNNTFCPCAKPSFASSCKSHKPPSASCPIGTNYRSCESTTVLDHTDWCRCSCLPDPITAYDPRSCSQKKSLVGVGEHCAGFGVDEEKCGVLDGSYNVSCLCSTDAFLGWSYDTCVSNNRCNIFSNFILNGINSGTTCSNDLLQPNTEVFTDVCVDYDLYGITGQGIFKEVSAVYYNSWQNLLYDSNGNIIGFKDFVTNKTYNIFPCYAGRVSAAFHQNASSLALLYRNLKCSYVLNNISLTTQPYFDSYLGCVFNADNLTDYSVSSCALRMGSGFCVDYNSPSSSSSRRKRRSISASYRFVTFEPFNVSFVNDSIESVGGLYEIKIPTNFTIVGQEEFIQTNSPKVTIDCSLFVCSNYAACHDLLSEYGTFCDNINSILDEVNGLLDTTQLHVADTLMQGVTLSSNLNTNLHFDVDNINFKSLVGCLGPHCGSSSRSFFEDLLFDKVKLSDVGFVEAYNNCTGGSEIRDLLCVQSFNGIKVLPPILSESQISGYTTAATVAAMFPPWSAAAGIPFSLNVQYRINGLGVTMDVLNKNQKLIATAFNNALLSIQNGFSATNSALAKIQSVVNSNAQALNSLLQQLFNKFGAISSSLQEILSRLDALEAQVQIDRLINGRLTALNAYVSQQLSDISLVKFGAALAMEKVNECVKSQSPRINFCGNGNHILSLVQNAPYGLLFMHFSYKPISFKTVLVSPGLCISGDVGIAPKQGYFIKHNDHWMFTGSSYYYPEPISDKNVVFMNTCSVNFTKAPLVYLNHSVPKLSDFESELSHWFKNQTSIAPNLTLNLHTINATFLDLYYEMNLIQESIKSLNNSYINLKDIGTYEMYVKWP
- Method Summary: multiplex bead assay
Endpoint Label: binding result

Reference set (5 entries):
COV_2172 (SEQ ID NO:872/877) (antibody, V domains shown) VH: EVQLVESGGGVVQPGRSLRLSCAPSGFTFSTYAMHWVRQAPGKGLEWVAVISYDGSIKYYADSVKGRFTISRDNTMNTVFLQMNSLRAEDTAVYFCAKGGERWELFTSFDYWGQGTQVTVSS VL: QSALTQPRSVSGSPGQSVTISCTGTSSDVGGYNYVSWYQQHPGKAPKLMIYDVSKRPSGVPDRFSGSKSGNTASLTISGLQAEDEADYYCCSYAGSYTFVFGGGTKLTVLG | no binding
COV_2028 (antibody, V domains shown, human IgG1) VH: QVQLQESGPGLVKPSGTLSLTCVVSGGSISSSNWWSWVRQPPGKGLEWIGEIYHSGSTNYNPSLKSRVTISVDKSKNQFSLRLTSVTAADTAVYYCARGWNYDYWGQGTLVTVSS VL: QSALTQPASVSGSPGQSITIACTGTSSDVGSYNLVSWYQQHPGKAPKLMIYEVSKRPSGLSNRFSGSKSGNTASLTISGLQAEDEADYYCYSYAGSSTWVFGGGTKLTVL | no binding
COV_1151 (antibody, V domains shown, human IgG1) VH: QVQVQQWGAGLLKPSETLSLTCAVYGGSFNNYYWSWIRQPPGKGLEWIGEINHSGSTNYNPSLMSRVTISVDTSKNQFSLKLTSVTAADTAVYFCARGLPVTTFFSSYYGMDVWGQGTTVTVSS VL: EIVLTQSPGTLSLSPGERATLSCRASQSVSRTYLAWYQQKPGQAPRLLIYGASSRATGIPDRFSGSGSGTDFTLTISRLEPEDFAVYYCQHYGSSPWTFGQGTKVEIRR | no binding
COV_2014 (antibody, V domains shown, human IgG1) VH: QVQLVQSGAEVKKPGASVKVSCKVSGYTLTELSMHWVRQAPGKGLEWMGGFDPEDGETIYAQKFQGRVTMTEDTSTDTAYMELSSLRSEDTAVYYCATGKINYYDSSGYYGTFDYWGQGTLVTVSS VL: AIQLTQSPSSLSASVGDRVTITCRASQGISSYLAWYQQKPGKAPKLLIYAASTLQSGVPSRFSGSGSGTDFTLTISSLQPEDFATYYCQQLNSYHLTFGQGTRLEIK | no binding
COV_1149 (antibody, V domains shown, human IgG1) VH: QVQLVESGGGVVQPGRSLRLSCAASGFTFSSYGMHWVRQAPGKGLEWVAVISYDGSNKYYADSVKGRFTISRDNSKNTLYLQMNSLRAEDTAVYYCAKTGGGYSYGLGNVWGQGTLVTVSS VL: QSALTQPASVSGSPGQSITISCTGTSSDVGGYNYVSWYQQHPGKAPKLMIYDVSNRPSGVSNRFSGSKSGNTASLTISGLQAEDEADYYCSSYTSSSTLVVFGGGTKLTVLG | no binding

Form field binding result, entry COV_2169 (antibody, V domains shown, human IgG1) VH: EVQLVESGGGVVQPGRSLRLSCAASGFTFSRYAMHWVRQAPGKGLEWVAVISYEGSNKYYADSVKGRFTISRNNSNNTLSLQMNSLRPDDTAVYYCVRSGGHYFDAFDLWGQGTMVTVSS VL: EIVLTQSPGTLSLSPGERATLSCRASQSVSRNYVAWYQQKPGQAPRLLIYGASSRATGIPDRFSGSGSGTDFTLTISRLEPEDFALYYCQQYGSSYTFGQGTKLEIKR : no binding

Summary for this binder, COV_2025 (antibody, V domains shown, human IgG1) VH: QVHLVQSGAEVKKPGASVKVSCKVSGYTLVELSVHWVRQAPAKGLEWIGGFDPEDGETIYAQKFQGRVTMTEDTSTDTAYMELTNLRSEDTAVYYCVTSQPFVSPNWFDPWGQGTLVTVSS VL: QSALTQPASVSGSPGQSITISCTGTSRDVGAYNYVSWYQQHPGKAPKLMIYEVTTRPSGVSNRFSGSKSGNTASLTISGLQAEDEADYYCSSYTGSRTLVFGTGTKVTVL : binding result is no binding

Sure, the documented binding result for COV_3103 (antibody, V domains shown, human IgG1) VH: EVQLVESGGGLVQPGRSLRLSCVASGFIVENFAMHWVRQAPGKGLEWVSGITWNSASTGYVESVKGRFSISRDNGENSMFLEMNSLRPDDTALYYCVKATGSYWGFPMDVWGQGTTVTVSS VL: EIVLTQSPGTLSLSPGEGGTLSCRASQSVRSNYLAWYQRKPGQAPRLLIYATSNRATGIPDRFSGSGSGTDFTLTISRLEPEDFAVYFCQHYGDSPYTFGQGTKLEIKR is no binding

Entry under test: COV_1145 (antibody, V domains shown, human IgG1) VH: QVQLVESGGGVVQPGRSLRLSCAASGFTFSSYGMHWVRQAPGKGLEWVAVIWYDGSNKYYADSVKGRFTISRDNSKNTLYLQMNSLRVEDTAVYYCAREGQLGATGLDCWGQGTLVSVSS VL: SYELTQPPSVSVSPGQTARITCSGDALPKKYAYWYQQKSGQAPVLVIYEDSKRPSGIPERFSGSSSGTMATLTISGAQVEDEADYYCYSTDNSGNHWVFGGGTKLTVLG . Its binding result was no binding

Summary for this binder, COV_2174 (antibody, V domains shown, human IgG1) VH: EVQLAESGGGLVKPGGSLRLSCAASGFTFSDYYMSWIRQAPGKGLEWVSYISSSGSTIYYADSVKGRFTISRDNAKNSLYLQMNSLRAEDTAVYYCARDWSVVVVPAAPAVDVWGQGTTVTVSS VL: DIQMTQSPSSLSASVGDRVTITCRASQGISNYLAWFQQKPGKAPKSLIYAASSLQSGVPSKFSGSGSGTDFTLTISSLQPEDFATYYCQQYNSYPLTFGGGTKVEIKR : binding result is no binding
